Origin of the recorded values: the supplement of paper PMC7877785

// self-splicing fitness (ln) lookup, one value per entry
assay.overview: self-splicing fitness, log relative to wild type (ln ratio); higher = more splicing; Tetrahymena group I intron in knt gene, E. coli kanamycin selection, DiMSum; sequences stand for … in CUCUCU…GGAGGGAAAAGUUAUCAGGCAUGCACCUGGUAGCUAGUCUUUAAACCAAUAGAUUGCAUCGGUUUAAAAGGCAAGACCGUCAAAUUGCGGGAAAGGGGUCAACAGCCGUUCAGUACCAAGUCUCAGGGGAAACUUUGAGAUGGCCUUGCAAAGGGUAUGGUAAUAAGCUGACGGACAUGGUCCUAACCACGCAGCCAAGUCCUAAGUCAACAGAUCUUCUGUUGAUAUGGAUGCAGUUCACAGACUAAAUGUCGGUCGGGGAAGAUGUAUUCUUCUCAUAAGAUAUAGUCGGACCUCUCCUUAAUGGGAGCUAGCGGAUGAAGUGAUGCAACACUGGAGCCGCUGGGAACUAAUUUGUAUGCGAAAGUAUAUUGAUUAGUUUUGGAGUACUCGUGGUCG;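 note: selection with 25 µg/mL kanamycin versus none on LB agar overnight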
experimental.context: 37 °C
measurement.type: self-splicing fitness (ln)

* UGCCAGCAAUAUUACGUCUA | -0.671
* UCCUAGCAAUAUUACGUCUG | -3.05
* GUUCAGCAAUAUUACGAUAC | -0.47
* GCGGAGCAAUAUUACGUACG | -2.71

* * *

assay.overview: self-splicing fitness, log relative to wild type (ln ratio); higher = more splicing; Tetrahymena group I intron in knt gene, E. coli kanamycin selection, DiMSum; sequences stand for … in CUCUCU…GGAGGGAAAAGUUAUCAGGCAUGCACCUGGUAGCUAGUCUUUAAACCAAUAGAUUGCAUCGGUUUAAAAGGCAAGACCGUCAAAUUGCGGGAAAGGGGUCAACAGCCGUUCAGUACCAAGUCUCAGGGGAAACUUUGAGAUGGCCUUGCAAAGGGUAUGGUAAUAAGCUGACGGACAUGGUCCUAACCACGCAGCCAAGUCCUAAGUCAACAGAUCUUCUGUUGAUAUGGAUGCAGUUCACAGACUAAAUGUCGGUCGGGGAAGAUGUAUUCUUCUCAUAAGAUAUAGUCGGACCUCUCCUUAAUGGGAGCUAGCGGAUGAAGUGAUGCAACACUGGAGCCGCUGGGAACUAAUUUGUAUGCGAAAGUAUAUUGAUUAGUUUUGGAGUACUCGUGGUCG
experimental.context: 30 °C
measurement.type: self-splicing fitness (ln)

• GACUAGCAAUAUUACGUGUU = -2.22
• AUCGAGCAAUAUUACGGCUG = -1.8
• ACCGAGCAAUAUUACGGGAC = -2.88

* * *

assay.overview: self-splicing fitness, log relative to wild type (ln ratio); higher = more splicing; Tetrahymena group I intron in knt gene, E. coli kanamycin selection, DiMSum; sequences stand for … in CUCUCU…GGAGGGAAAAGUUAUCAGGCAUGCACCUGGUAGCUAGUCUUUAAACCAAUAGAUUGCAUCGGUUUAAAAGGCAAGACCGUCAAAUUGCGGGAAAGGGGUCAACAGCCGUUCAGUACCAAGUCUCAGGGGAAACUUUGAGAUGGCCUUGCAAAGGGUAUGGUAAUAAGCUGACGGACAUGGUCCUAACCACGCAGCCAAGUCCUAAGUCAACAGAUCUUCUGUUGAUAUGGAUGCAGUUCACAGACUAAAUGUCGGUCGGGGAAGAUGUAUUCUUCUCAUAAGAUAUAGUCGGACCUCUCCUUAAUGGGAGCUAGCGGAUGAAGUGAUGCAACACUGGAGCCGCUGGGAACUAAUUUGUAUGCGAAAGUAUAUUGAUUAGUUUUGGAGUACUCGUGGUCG
experimental.context: 30 °C
Assign a class from recorded self-splicing fitness (ln); defined classes: bottom end: < -3; midrange: ≥ -3 and < -2; top end: ≥ -2

- UAAGAGCAAUAUUACGUUGG: midrange
- ACUCAGCAAUAUUACGUACC: top end
- UUGGAGCAAUAUUACGUCUG: midrange
- CUAUAGCAAUAUUACGAUGU: bottom end
- UUUGAGCAAUAUUACGAAUG: bottom end
- ACACAGCAAUAUUACGUGGC: bottom end
- GCCAAGCAAUAUUACGCUAC: bottom end
- UUGCAGCAAUAUUACGUGCA: midrange
- GGAAAGCAAUAUUACGUGCA: top end
- CUUCAGCAAUAUUACGCUAG: bottom end
- UGGAAGCAAUAUUACGUGUG: top end
- GUUAAGCAAUAUUACGUAUU: bottom end
- GGCGAGCAAUAUUACGGCCG: midrange
- GCUGAGCAAUAUUACGGCGA: top end
- GAAGAGCAAUAUUACGGAAG: midrange
- UAUCAGCAAUAUUACGAACG: top end
- ACAGAGCAAUAUUACGACCU: midrange
- GCCCAGCAAUAUUACGAAUU: midrange
- GAGGAGCAAUAUUACGAACC: midrange
- UAAGAGCAAUAUUACGAUUG: top end
- GGGGAGCAAUAUUACGAAUU: top end
- CUCUAGCAAUAUUACGACCG: top end
- UAACAGCAAUAUUACGGUGA: top end
- GGGUAGCAAUAUUACGGUCU: top end
- UUAAAGCAAUAUUACGCGUC: top end
- UCAUAGCAAUAUUACGACUU: bottom end
- GGGUAGCAAUAUUACGUGCC: top end
- GUUUAGCAAUAUUACGUUUG: bottom end
- GGCUAGCAAUAUUACGCCUC: top end
- CUGCAGCAAUAUUACGUCUA: top end
- AAGGAGCAAUAUUACGCCGA: midrange
- GCAUAGCAAUAUUACGUUAC: midrange
- AACUAGCAAUAUUACGGGAC: bottom end
- GAUUAGCAAUAUUACGGAUG: midrange
- UAACAGCAAUAUUACGAGCC: midrange
- UCCAAGCAAUAUUACGGACG: bottom end
- GGCAAGCAAUAUUACGAAAC: top end
- UCAAAGCAAUAUUACGCUCU: bottom end
- AGUAAGCAAUAUUACGAAGG: bottom end
- AAGAAGCAAUAUUACGCUUG: top end
- AGGAAGCAAUAUUACGUGUC: bottom end
- AGGAAGCAAUAUUACGGGCU: top end
- AAGCAGCAAUAUUACGGCGU: top end
- GAUCAGCAAUAUUACGGCUU: top end
- UCGAAGCAAUAUUACGCAAC: midrange
- AGAUAGCAAUAUUACGUAAC: bottom end
- ACUAAGCAAUAUUACGUUUA: bottom end
- GUUUAGCAAUAUUACGUUCG: top end

* * *

assay.overview: self-splicing fitness, log relative to wild type (ln ratio); higher = more splicing; Tetrahymena group I intron in knt gene, E. coli kanamycin selection, DiMSum; sequences stand for … in CUCUCU…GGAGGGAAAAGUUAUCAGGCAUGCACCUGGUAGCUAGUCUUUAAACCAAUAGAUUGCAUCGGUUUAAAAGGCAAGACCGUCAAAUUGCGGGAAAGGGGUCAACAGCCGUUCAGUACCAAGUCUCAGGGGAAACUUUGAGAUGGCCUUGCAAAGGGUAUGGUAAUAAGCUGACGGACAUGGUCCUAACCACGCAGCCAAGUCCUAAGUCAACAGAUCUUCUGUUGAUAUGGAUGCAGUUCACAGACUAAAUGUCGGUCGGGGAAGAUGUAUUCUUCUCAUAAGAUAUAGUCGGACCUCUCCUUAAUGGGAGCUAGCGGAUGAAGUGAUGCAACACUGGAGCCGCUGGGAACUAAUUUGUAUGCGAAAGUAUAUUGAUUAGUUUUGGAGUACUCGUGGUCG
experimental.context: 37 °C
Entry flag: 1 if self-splicing fitness (ln) reaches -2; -1 if it does not.

• ACUCAGCAAUAUUACGGUUC = -1
• GAUUAGCAAUAUUACGACAC = 1
• CGUUAGCAAUAUUACGAUCG = 1
• AGGCAGCAAUAUUACGGGAC = 1
• GCUUAGCAAUAUUACGCACG = 1
• ACUCAGCAAUAUUACGUAAG = 1
• GUAAAGCAAUAUUACGCCAC = 1
• GUAUAGCAAUAUUACGUGCG = 1
• CGAAAGCAAUAUUACGGAGG = 1
• GAAUAGCAAUAUUACGGGAU = -1
• CCACAGCAAUAUUACGGACG = 1
• UCAGAGCAAUAUUACGGUUU = -1
• UUUGAGCAAUAUUACGAAAU = -1
• AAGUAGCAAUAUUACGAGGG = -1
• GUGAAGCAAUAUUACGGCAC = 1
• AGGAAGCAAUAUUACGAGGA = -1
• GGUUAGCAAUAUUACGCAAG = 1
• GACAAGCAAUAUUACGUUAC = -1
• CACGAGCAAUAUUACGUAUU = -1
• CUAAAGCAAUAUUACGAAGA = 1
• AGCCAGCAAUAUUACGUCAG = -1
• GCGUAGCAAUAUUACGCGUU = 1
• GCUGAGCAAUAUUACGCAAG = -1
• CUAAAGCAAUAUUACGACAG = 1
• CAUUAGCAAUAUUACGACCA = 1
• AGGAAGCAAUAUUACGGAGG = -1
• GCCUAGCAAUAUUACGGGGC = -1
• AGUGAGCAAUAUUACGAACG = 1
• UCCCAGCAAUAUUACGAUUA = 1
• CGGCAGCAAUAUUACGGAAC = -1
• GACGAGCAAUAUUACGCACU = 1
• AAAGAGCAAUAUUACGUGUC = -1
• ACUUAGCAAUAUUACGCUGU = -1
• GCAUAGCAAUAUUACGUCGC = -1
• CGUUAGCAAUAUUACGUGAG = 1
• CAGCAGCAAUAUUACGCUGG = -1
• GACAAGCAAUAUUACGCAGU = 1
• GUCCAGCAAUAUUACGUGUC = 1
• UUUAAGCAAUAUUACGUCAU = 1
• GUAGAGCAAUAUUACGGUUU = 1
• UAUAAGCAAUAUUACGGUUG = 1
• AUCCAGCAAUAUUACGUCGG = -1
• CCAGAGCAAUAUUACGUGUU = -1
• GGUGAGCAAUAUUACGGCGA = 1
• GUUGAGCAAUAUUACGGGAA = -1
• ACCAAGCAAUAUUACGGCCU = 1
• GUAAAGCAAUAUUACGAAAC = 1
• GACGAGCAAUAUUACGGUGU = -1
• AAACAGCAAUAUUACGUGUG = 1
• CACCAGCAAUAUUACGUCUG = 1
• UACAAGCAAUAUUACGAGUG = 1
• GGCCAGCAAUAUUACGGUGU = 1
• UAAUAGCAAUAUUACGUUAA = -1
• GCUGAGCAAUAUUACGUUUC = 1
• GAACAGCAAUAUUACGCGGC = 1
• GAUCAGCAAUAUUACGGCUU = 1
• GAGCAGCAAUAUUACGAUGU = 1
• GGUGAGCAAUAUUACGUAAA = 1
• GCCCAGCAAUAUUACGUAAU = 1
• UCUCAGCAAUAUUACGGUAU = -1
• GUCUAGCAAUAUUACGUUAU = 1
